# Run parameters: 293.15 K; 5000 kPa; Liquid; Vibrating wire viscometry
Quantity measured: viscosity (mPa·s)

These recorded examples may help you get a feel for the data.
CCCOC(=O)CCCCC(=O)OCCC [dipropyl hexanedioate]: 4.87
CCOC(=O)CCCCC(=O)OCC [diethyl hexanedioate]: 3.672

1: CCCCOC(=O)CCCCC(=O)OCCCC [dibutyl hexanedioate]
2: COC(=O)CCCCC(=O)OC [dimethyl 1,6-hexanedioate]
Q: Of the two listed items, which has the higher viscosity? First: 1 Second: 2 Which one? Tell me its label.
Result: 1

====

# Run parameters: 293.15 K; 30000 kPa; Liquid; Vibrating wire viscometry
Quantity measured: viscosity (mPa·s)

COC(=O)CCCCC(=O)OC [dimethyl 1,6-hexanedioate]: 4.333

A: CCCCOC(=O)CCCCC(=O)OCCCC [dibutyl hexanedioate]
B: CCOC(=O)CCCCC(=O)OCC [diethyl hexanedioate]
Q: Lower viscosity: A or B ? Which one? Tell me its label.
Result: B
(B: 4.722 mPa·s, A: 7.808 mPa·s)

These measurements were taken from the NIST ThermoML archive (doi:10.1007/s10765-019-2573-6).
